- Tested on: OVCAR-5 ovarian
- procedure text: NCI tumour cell line growth inhibition, 48 h; in the data active = GI50 below about 0.43 µM; inactive = the rest
Pick from TRUE for active, FALSE for inactive when you respond.

Here's what some known entries look like.
INSERT INTO measurements (compound, tested_system, answer_label) VALUES
  ('Cc1cc(N(CCCNc2ccnc3cc(Cl)ccc23)Cc2ccco2)nc(N2CCN(C)CC2)n1', 'OVCAR-5 ovarian', 'FALSE'),
  ('N#CC1=C(/N=C/c2ccccc2)Oc2c(ccc3ccccc23)C1c1ccccc1 (centres undefined)', 'OVCAR-5 ovarian', 'FALSE'),
  ('COc1ccc(NC(=O)C2CCC(CNS(=O)(=O)c3ccccc3)CC2)cc1OC (centres undefined)', 'OVCAR-5 ovarian', 'FALSE'),
  ('O=C(CC1(O)C(=O)N(Cc2ccccc2)c2ccccc21)c1ccc(C(=O)NCC2CCC3(CC2)OOC2(CCCCC2)OO3)cc1 (centres undefined)', 'OVCAR-5 ovarian', 'FALSE'),
  ('Oc1cccc2ccc(N/N=C/c3cc(CN4CCOCC4)c(O)c4ncccc34)nc12', 'OVCAR-5 ovarian', 'TRUE');

Tell me the recorded outcome of this test for CCCCCO/N=C\c1c2c(O)c3c(O)c(C)c4c(c3c1O)C(=O)C(C)(O/C=C\C(OC)C(C)C(OC(C)=O)C(C)C(O)C(C)C(O)C(C)/C=C\C=C(\C)C(=O)N2)O4 (centres undefined) .
FALSE

Would you mind telling me which call this test gave "COC(=O)c1cncc(/C=C/c2c(C)cc(O)cc2C)c1" ?
FALSE

Which outcome did this test record for the compound "COc1ccc(/C=C(\C#N)n2nnc3c(F)cccc32)cc1" ?
FALSE

How was "Oc1c(I)cc(I)c2cccnc12" classified in this test?
FALSE
